target: MAGI3_5, Q5TCQ9; assay: holdup assay; parameters: key: below the threshold = too weak to quantify, mostly under pKd 3.1 to 4; conditions: plain residues with an end cap or a label only (N-terminal biotin on a linker: ttds)
Sequence (Q5TCQ9 847-941): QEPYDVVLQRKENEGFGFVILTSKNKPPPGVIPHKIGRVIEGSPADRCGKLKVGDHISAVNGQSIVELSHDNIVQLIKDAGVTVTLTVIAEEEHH
endpoint label: pKd

SRPQRTQTQV [HPV67-E6, A4U7F2] : below the threshold
QSARYRDTEL [TJP2, Q9UDY2] : below the threshold
STLTIFETAL [ABCC4, O15439] : 4.39
SSRTRRETQL [HPV16-E6, P03126] : 3.96
RSLEEEESQL [GRASP, Q7Z6J2] : below the threshold
PKTPPTDTSV [KIR3DL3, Q8N743] : below the threshold
SVWLRKETRV [CYSLTR2, Q9NS75] : below the threshold
